Molecular target: T1, Peptide A (human PAR-2), unbiotinylated (Human)
T1 construct: also called Peptide A No Biotin
T1 peptide: GTNRSSKGRSLIGKVDGT
Test: peptide ELISA titration
Entries and their EC50
reported.property: EC50 (nM)

{"binder": "H4H618N (antibody, human IgG4, V domains shown, also called H2M618N variable regions) VH: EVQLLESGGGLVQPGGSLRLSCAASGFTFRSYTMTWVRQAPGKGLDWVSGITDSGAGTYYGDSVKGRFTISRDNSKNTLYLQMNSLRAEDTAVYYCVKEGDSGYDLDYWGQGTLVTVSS VL: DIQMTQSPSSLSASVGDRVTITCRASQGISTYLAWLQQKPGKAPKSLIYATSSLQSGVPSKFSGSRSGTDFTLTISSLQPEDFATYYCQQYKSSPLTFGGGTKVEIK", "reported.property": "EC50", "measurement.unit": "nM", "test.value": 0.009}
{"binder": "H4H591N (antibody, human IgG4, V domains shown, also called H2M591N variable regions) VH: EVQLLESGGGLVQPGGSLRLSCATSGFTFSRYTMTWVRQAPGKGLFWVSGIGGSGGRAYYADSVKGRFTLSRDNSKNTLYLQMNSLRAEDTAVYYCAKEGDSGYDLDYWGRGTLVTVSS VL: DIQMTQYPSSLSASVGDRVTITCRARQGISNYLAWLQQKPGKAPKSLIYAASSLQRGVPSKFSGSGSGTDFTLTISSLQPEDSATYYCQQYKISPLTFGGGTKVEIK", "reported.property": "EC50", "measurement.unit": "nM", "test.value": 0.01}
{"binder": "H4H588N (antibody, human IgG4, V domains shown, also called H2M588N variable regions) VH: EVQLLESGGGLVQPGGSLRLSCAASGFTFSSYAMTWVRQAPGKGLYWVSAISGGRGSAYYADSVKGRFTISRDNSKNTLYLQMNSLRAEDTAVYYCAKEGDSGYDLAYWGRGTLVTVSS VL: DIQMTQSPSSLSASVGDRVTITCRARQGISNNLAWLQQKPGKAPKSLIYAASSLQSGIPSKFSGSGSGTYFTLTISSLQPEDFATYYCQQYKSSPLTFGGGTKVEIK", "reported.property": "EC50", "measurement.unit": "nM", "test.value": 0.01}
